Molecular target: human GPR119 (Homo sapiens, UniProt Q8TDV5)
Construct: expressed in transfected cells; host or cells: HEK293 (transient transfection, Lipofectamine 2000)
Sequence (Q8TDV5 1-335): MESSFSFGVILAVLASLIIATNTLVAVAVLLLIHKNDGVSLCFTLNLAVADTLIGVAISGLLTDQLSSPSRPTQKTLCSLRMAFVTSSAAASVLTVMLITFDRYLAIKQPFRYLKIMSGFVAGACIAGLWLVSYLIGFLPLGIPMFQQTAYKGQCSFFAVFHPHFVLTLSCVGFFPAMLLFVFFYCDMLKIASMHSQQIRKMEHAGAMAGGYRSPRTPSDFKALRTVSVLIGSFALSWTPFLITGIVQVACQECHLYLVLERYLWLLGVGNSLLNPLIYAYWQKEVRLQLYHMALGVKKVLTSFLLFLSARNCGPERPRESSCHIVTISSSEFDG
Assay: In vitro cyclic AMP assay (Cisbio HTRF) in HEK293 cells transfected with human GPR119
Assay type: cell-based
Settings: 1 h, % Induction @ 10 μM, cAMP, Table I
Quick rule for you: activation at 10 µM at 50% or higher means TRUE, lower means FALSE.

Please review the entries below; each comes with its answer.
Molecule	Label value
CNC(=O)c1ccc(-c2ccc3oc(C4CCN(C(=O)OC(C)C)CC4)nc3c2)cc1C	FALSE
CC(C)OC(=O)N1CCC(c2nc3cc(-c4ccc(C(F)(F)F)cc4)ccc3o2)CC1	FALSE
CC(C)OC(=O)N1CCC(c2nc3cc(-c4ccc(S(C)(=O)=O)cc4F)ccc3o2)CC1	TRUE

Exercise: Please tell me: is the molecule CCC(C)OC(=O)N1CCC(c2nc3cc(-c4ccc(-n5cnnn5)cc4F)ccc3o2)CC1 (centres unmarked) at or over 50% in terms of activation at 10 µM?
Key: TRUE

Exercise: Please tell me: is the molecule "CC(C)OC(=O)N1CCC(c2nc3cc(-c4ccc(C(N)=O)cc4Cl)ccc3o2)CC1" at or over 50% in terms of activation at 10 µM?
Key: FALSE

Exercise: Please tell me: is the molecule "CCCS(=O)(=O)N1CCC(c2nc3cc(-c4ccc(C(N)=O)c(F)c4)ccc3o2)CC1" at or over 50% in terms of activation at 10 µM?
Key: FALSE

Exercise: Please tell me: is the molecule "CC(C)OC(=O)N1CCC(c2nc3cc(-c4ccc(C(N)=O)c(Cl)c4)ccc3o2)CC1" at or over 50% in terms of activation at 10 µM?
Key: TRUE

Exercise: Please tell me: is the molecule "CNS(=O)(=O)c1ccc(-c2ccc3oc(C4CCN(C(=O)OC(C)C)CC4)nc3c2)cc1" at or over 50% in terms of activation at 10 µM?
Key: FALSE
